Record form. Attribute: ED50. Fill in for each entry.
species: Rattus norvegicus; test: Effective dose against Histamine-induced skin vascular permeability model in rat after 4 hr (n = 5); assay type: functional
Reply with the number, then its unit.

Form field: reported ED50 of CCCCn1cc(C2CCN(Cc3cccc(C(=O)O)c3)CC2)c2ccccc21
1 mg/kg

Give its ED50 value. Item: CCOCCn1cc(C2CCN(CCOc3ccccc3C=O)CC2)c2ccccc21
0.1 mg/kg

Can you share its ED50? I mean this compound: CCOCCn1cc(C2CCN(Cc3ccc(OC)c(C(=O)O)c3)CC2)c2ccccc21
0.05 mg/kg

Consider the compound CCCCn1cc(C2CCN(Cc3ccc(OC)c(C(=O)O)c3)CC2)c2ccccc21 and give its measured ED50.
0.08 mg/kg

----------
species: Rattus norvegicus; assay: Effective dose against Histamine-induced skin vascular permeability model in rat after 4 hr (n = 5); type: functional
measured_endpoint: ED50 (mg/kg)
Kindly provide the numeric value in mg/kg only, without the unit symbol.

Consider the compound shown here: CCOCCn1cc(C2CCN(Cc3cccc(C(=O)O)c3)CC2)c2ccccc21 What is its recorded ED50?
0.07

Look at this compound and give its reported ED50. O=C(O)c1cccc(CN2CCC(c3cn(Cc4ccoc4)c4ccccc34)CC2)c1
1

Fill in: ED50 of COc1ccc(CN2CCC(c3cn(Cc4ccc(Cl)s4)c4ccccc34)CC2)cc1C(=O)O is ___
0.5

// query ED50 value for entry CCOCCn1cc(C2CCN(CCOc3ccccc3C(=O)O)CC2)c2ccccc21
0.08

// query ED50 value for entry COc1ccc(CN2CCC(c3cn(Cc4ccoc4)c4ccccc34)CC2)cc1C(=O)O
0.2

----------
biological target: Serotonin 2 (5-HT2) receptor (Homo sapiens, UniProt P41595+P28223+P28335); experiment: Inhibitory concentration against 5-hydroxytryptamine 2 receptor; assay type: protein assay
measured_endpoint: IC50 (µM)
Hi! Could you send only the number? It should be in µM, unit omitted.

Form field: reported IC50 of COc1ccc(CN2CCC(c3cn(Cc4ccc(Cl)s4)c4ccccc34)CC2)cc1C(=O)O
10

Quick one: IC50 of CCOCCn1cc(C2CCN(CCOc3ccccc3C=O)CC2)c2ccccc21 ?
3.272

So what does the record say about IC50 for CCOCCn1cc(C2CCN(Cc3cccc(C(=O)O)c3)CC2)c2ccccc21 ?
4.95

Requested field: IC50. Item: O=C(O)c1cccc(CN2CCC(c3cn(Cc4ccoc4)c4ccccc34)CC2)c1
10

Quick one: IC50 of CCOCCn1cc(C2CCN(Cc3ccc(OC)c(C(=O)O)c3)CC2)c2ccccc21 ?
10

What value of IC50 has been recorded for this entry: COc1ccc(CN2CCC(c3cn(Cc4ccoc4)c4ccccc34)CC2)cc1C(=O)O
10

----------
species: Rattus norvegicus; experiment: Effective dose against Histamine-induced skin vascular permeability model in rat after 8 hr (n = 5); assay type: functional
For each record, write down the corresponding ED50.
Kindly provide the numeric value in mg/kg only, without the unit symbol.

What measured ED50 goes with COc1ccc(CN2CCC(c3cn(Cc4ccc(Cl)s4)c4ccccc34)CC2)cc1C(=O)O ?
0.7

Sample CCOCCn1cc(C2CCN(CCOc3ccccc3C=O)CC2)c2ccccc21 — what was its ED50?
0.22

Report ED50 for COc1ccc(CN2CCC(c3cn(Cc4ccoc4)c4ccccc34)CC2)cc1C(=O)O please.
0.2

What does the record list as ED50 for CCOCCn1cc(C2CCN(Cc3cccc(C(=O)O)c3)CC2)c2ccccc21 ?
0.45

Consider the compound shown here: CCCCn1cc(C2CCN(Cc3ccc(OC)c(C(=O)O)c3)CC2)c2ccccc21 What is its recorded ED50?
0.13

Which ED50 is reported for this compound? CCOCCn1cc(C2CCN(CCOc3ccccc3C(=O)O)CC2)c2ccccc21
0.02
